system: Human immunodeficiency virus 1; assay: Selectivity ratio of EC50 for antiviral activity against GS-9160-resistant HIV1 selected after 9 passages to EC50 for antiviral activity against wild-type HIV1 3B; format: functional
Exercise: for every item that follows, state its recorded Ratio EC50.
Give bare numbers.

{"columns": ["compound", "Ratio EC50"],
 "data": [
  ["CC(C)CN(C[C@@H](O)[C@H](Cc1ccccc1)NC(=O)O[C@H]1CCOC1)S(=O)(=O)c1ccc(N)cc1", 1.5],
  ["Nc1ccn([C@@H]2CS[C@H](CO)O2)c(=O)n1 [LAMIVUDINE]", 1.4]
]}

Kindly give each listed record's Ratio EC50.
1. O=C(NCc1ccc(F)cc1)c1nc(N2CCCCS2(=O)=O)c2cccnc2c1O
2. CN(c1c2c(c(O)c3ncccc13)C(=O)N(Cc1ccc(F)cc1)C2)S(C)(=O)=O

1. 49
2. 51

----------
assay: in vitro; conditions: human, MT4 cells
Description: Selectivity index, ratio of CC50 for human MT4 cells to EC50 for HIV1 3B in presence of 10% FBS
outcome-measure: selectivity ratio
Give bare numbers.

{"columns": ["compound-smiles", "outcome-measure", "assay-value"],
 "data": [
  ["CN(c1c2c(c(O)c3ncccc13)C(=O)N(Cc1ccc(F)cc1)C2)S(C)(=O)=O", "selectivity ratio", 457]
]}

Lab note: next molecule to report on.
Can you look up the measured selectivity ratio of `O=C(NCc1ccc(F)cc1)c1nc(N2CCCCS2(=O)=O)c2cccnc2c1O` for me?
400

----------
target: UniProtKB Q7ZJM1
Sequence (Q7ZJM1 whole entry): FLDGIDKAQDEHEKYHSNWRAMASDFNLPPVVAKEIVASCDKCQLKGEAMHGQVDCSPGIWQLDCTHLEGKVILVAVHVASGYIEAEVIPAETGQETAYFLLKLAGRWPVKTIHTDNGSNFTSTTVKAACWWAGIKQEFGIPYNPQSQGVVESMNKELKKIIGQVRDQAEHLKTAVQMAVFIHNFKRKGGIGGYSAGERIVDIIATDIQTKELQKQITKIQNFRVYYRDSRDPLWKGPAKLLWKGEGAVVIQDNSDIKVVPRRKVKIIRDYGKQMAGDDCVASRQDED
outcome-measure: pIC50
Numbers only, as −log10 of the molar value.

Kindly give each listed record's pIC50.
1. CN(c1c2c(c(O)c3ncccc13)C(=O)N(Cc1ccc(F)cc1)C2)S(C)(=O)=O
2. O=C(NCc1ccc(F)cc1)c1nc(N2CCCCS2(=O)=O)c2cccnc2c1O

1. 7.55
2. 7.36

----------
assay: Cytotoxicity against human uninfected MT2 cells by three fold dilution method in presence of 10% FBS
outcome-measure: CC50 (µM)
Give bare numbers, in µM.

Consider the reported CC50 for these compounds:
{"columns": ["compound-smiles", "assay-value"],
 "data": [
  ["CN(c1c2c(c(O)c3ncccc13)C(=O)N(Cc1ccc(F)cc1)C2)S(C)(=O)=O", 4],
  ["O=C(NCc1ccc(F)cc1)c1nc(N2CCCCS2(=O)=O)c2cccnc2c1O", 3]
]}

Lab note: next compound to report on.
Can you look up the measured CC50 of `COc1cc2c(cc1Cc1cccc(Cl)c1F)c(=O)c(C(=O)O)cn2[C@@H](CO)C(C)C` for me?
8

----------
test system: Human immunodeficiency virus 1; assay: Selectivity ratio of EC50 for antiviral activity against NNRTI-resistant HIV1 harboring RTK103N mutant gene to EC50 for antiviral activity against wild-type HIV1 3B; format: functional
Exercise: for every item that follows, state its recorded Ratio EC50.
One number for each entry.

Consider the reported Ratio EC50 for these compounds:
{"columns": ["compound", "Ratio EC50"],
 "data": [
  ["O=C(NCc1ccc(F)cc1)c1nc(N2CCCCS2(=O)=O)c2cccnc2c1O", 1],
  ["Nc1nc(=O)n([C@@H]2CS[C@H](CO)O2)cc1F [EMTRICITABINE]", 1],
  ["CC(C)OC(=O)OCOP(=O)(CO[C@H](C)Cn1cnc2c(N)ncnc21)OCOC(=O)OC(C)C.O=C(O)/C=C/C(=O)O [TENOFOVIR DISOPROXIL FUMARATE]", 1],
  ["CN(c1c2c(c(O)c3ncccc13)C(=O)N(Cc1ccc(F)cc1)C2)S(C)(=O)=O", 1],
  ["CC(C)c1nc(COC(N)=O)n(Cc2ccncc2)c1Sc1cc(Cl)cc(Cl)c1 [CAPRAVIRINE]", 0]
]}

Lab note: next compound to report on.
Provide the documented Ratio EC50 with Human immunodeficiency virus 1 as the system for Cc1cccc(C)c1OCC(=O)N[C@@H](Cc1ccccc1)[C@@H](O)C[C@H](Cc1ccccc1)NC(=O)[C@H](C(C)C)N1CCCNC1=O [LOPINAVIR]
1

----------
experiment: Cytotoxicity against human MT4 cells infected with HIV1 3B by three fold dilution method in presence of 10% FBS; format: cell-based; conditions: MT4 cells infected with HIV-1 3B
outcome-measure: CC50 (nM)
One number for each entry, in nM.

Consider the reported CC50 for these molecules:
{"columns": ["compound-smiles", "CC50 / nM"],
 "data": [
  ["O=C(NCc1ccc(F)cc1)c1nc(N2CCCCS2(=O)=O)c2cccnc2c1O", 1600],
  ["CN(c1c2c(c(O)c3ncccc13)C(=O)N(Cc1ccc(F)cc1)C2)S(C)(=O)=O", 320],
  ["Cc1nnc(C(=O)NC(C)(C)c2nc(C(=O)NCc3ccc(F)cc3)c(O)c(=O)n2C)o1", 58200]
]}

Lab note: next molecule to report on.
Can you look up the measured CC50 of `COc1cc2c(cc1Cc1cccc(Cl)c1F)c(=O)c(C(=O)O)cn2[C@@H](CO)C(C)C` for me?
4000

----------
Exercise: for every item that follows, state its recorded EC50.
tested on: Human immunodeficiency virus 1; assay: Antiviral activity against 0.04 MOI HIV1 3B infected in human MT-2 cells by […] dilution method in presence of 100% human serum; settings: Human immunodeficiency virus 1, 3B, MT2
Answers are plain numbers, in nM.

Consider the reported EC50 for these compounds:
{"columns": ["compound-smiles", "assay-value"],
 "data": [
  ["O=C(NCc1ccc(F)cc1)c1nc(N2CCCCS2(=O)=O)c2cccnc2c1O", 200],
  ["COc1cc2c(cc1Cc1cccc(Cl)c1F)c(=O)c(C(=O)O)cn2[C@@H](CO)C(C)C", 207]
]}

Can you look up the measured EC50 of `CN(c1c2c(c(O)c3ncccc13)C(=O)N(Cc1ccc(F)cc1)C2)S(C)(=O)=O` for me?
30

----------
Exercise: for every item that follows, state its recorded CC50.
test: Cytotoxicity against human SupT1 cells infected with HIV1 3B; assay type: cell-based, SUP-T1; settings: SupT1 cells infected with HIV-1 3B

Consider the reported CC50 for these molecules:
{"columns": ["molecule", "outcome-measure", "assay-value"],
 "data": [
  ["CN(c1c2c(c(O)c3ncccc13)C(=O)N(Cc1ccc(F)cc1)C2)S(C)(=O)=O", "CC50", "0.6 µM"],
  ["COc1cc2c(cc1Cc1cccc(Cl)c1F)c(=O)c(C(=O)O)cn2[C@@H](CO)C(C)C", "CC50", "5.3 µM"]
]}

Kindly give each listed record's CC50.
1. O=C1Nc2ccc(Cl)cc2[C@@](C#CC2CC2)(C(F)(F)F)O1 [EFAVIRENZ]
2. O=C(NCc1ccc(F)cc1)c1nc(N2CCCCS2(=O)=O)c2cccnc2c1O
3. CC(C)CN(C[C@@H](O)[C@H](Cc1ccccc1)NC(=O)O[C@H]1CCOC1)S(=O)(=O)c1ccc(N)cc1

["15.5 µM", "1.9 µM", "96 µM"]

----------
test system: Human immunodeficiency virus 1; experiment: Antiviral activity against HIV1 infected in SupT1 cells assessed as accumulation of integrated junction products after 48 hrs by Alu-PCR assay; assay type: functional, organism-based; details: Human immunodeficiency virus 1, SUP-T1, 48 h
Exercise: for every item that follows, state its recorded pEC50.
Numbers only, as −log10 of the molar value.

{"columns": ["compound-smiles", "pEC50"],
 "data": [
  ["CN(c1c2c(c(O)c3ncccc13)C(=O)N(Cc1ccc(F)cc1)C2)S(C)(=O)=O", 9.05],
  ["COc1cc2c(cc1Cc1cccc(Cl)c1F)c(=O)c(C(=O)O)cn2[C@@H](CO)C(C)C", 9.52]
]}

Can you look up the measured pEC50 of `O=C(NCc1ccc(F)cc1)c1nc(N2CCCCS2(=O)=O)c2cccnc2c1O` for me?
8.89
